- test_target: Nitric oxide synthase, inducible (Mus musculus)
- measurement_notes: Inhibition of iNOS-mediated nitric oxide production in LPS-stimulated mouse RAW 264.7 cells assessed as cell survival at 50 uM pretreated 15 mins before LPS challenge measured after 20 hrs relative to control
- Assay type: cell-based
Provide the reported Survival of each item.
Answers are plain numbers, in %.

Solved cases below.
>>> print(df.to_string())
                            compound_string  test_value
0     C#CCN1Cc2[nH]c3ccccc3c2C[C@@H]1C(=O)O        87.9
1  CS(=O)(=O)N1Cc2[nH]c3ccccc3c2C[C@H]1C(=O)O        94.2
2  COC(=O)[C@@H]1Cc2c([nH]c3ccccc23)CN1CC1CC1        99.8

List Survival for every entry below, keeping the order given.
1. COC(=O)[C@@H]1Cc2c([nH]c3ccccc23)CN1S(C)(=O)=O
2. COC(=O)[C@H]1Cc2c([nH]c3ccccc23)CN1S(=O)(=O)c1ccc(Br)cc1
3. C=CCOC(=O)N1Cc2[nH]c3ccccc3c2C[C@H]1C(=O)O
4. COC(=O)[C@@H]1Cc2c([nH]c3ccccc23)CN1C(=O)NC1CCCCC1
5. COC(=O)[C@@H]1Cc2c([nH]c3ccccc23)CN1C(=O)NCCc1ccccc1

1. 91.9
2. 89.7
3. 135
4. 79
5. 68.9
